Sourced from PubChem BioAssay (NCI)

System: EKVX NSCLC
Assay: NCI tumour cell line growth inhibition, 48 h
Catalogue of TGI readings, one per entry.
Recorded endpoint: TGI (µM)

{"columns": ["Molecule", "Recorded endpoint", "Quantity unit", "Censoring operator", "Measured value"],
 "data": [
  ["COc1cc(NCc2ccc3n2-c2ccccc2OC3)cc(OC)c1OC", "TGI", "µM", "=", 45.1],
  ["Cc1cc(C)c2c(c1)C(=O)C1(C2)Cc2c(ccc(C)c2C)C1=O (configuration not stated)", "TGI", "µM", ">", 100],
  ["N#CSCC(=O)c1ccc(Cl)cc1", "TGI", "µM", "=", 26.5],
  ["CC(=O)O/C=C\\OC1CCCC1", "TGI", "µM", ">", 100],
  ["CC(C)(C)OC(=O)N/N=C(/N)c1ccccc1", "TGI", "µM", ">", 100],
  ["C=C1CO[C@@H]2C[C@@H]1CC/C(C)=C/CC/C(C)=C/CC[C@@]2(C)O", "TGI", "µM", "=", 45.2],
  ["N#CC(C#N)=Cc1ccc(-c2ccc(-c3nc4ccccc4o3)cc2)o1", "TGI", "µM", ">", 100],
  ["CCS/C(Nc1ccccc1)=C(\\C#N)C(=O)N/N=C/c1ccc(Cl)cc1Cl", "TGI", "µM", ">", 100],
  ["CC(C)NC(=O)O/N=C1\\CCC2[C@@H]3CC=C4C[C@@H](OC(=O)NC(C)C)CC[C@]4(C)C3CC[C@]12C (some centres not stated)", "TGI", "µM", "=", 3.42],
  ["O=C(NC/C(Cl)=C/Cl)Nc1cccc2c1CCCC2", "TGI", "µM", ">", 100],
  ["CCOC(=O)C(Cc1ccc(OC)cc1)C(=O)OCC", "TGI", "µM", "=", 23.7],
  ["NCCc1ccc2c(c1)C(=O)c1c(O)ccc(O)c1C2=O", "TGI", "µM", "=", 6.73]
]}
